Measured values drawn from paper PMC4289617 for this set.

Target: WDR5Δ23 (WD repeat domain 5, residues 24–334) (human, UniProt P61964 24-334)
Test: fluorescence polarisation
parameter-measured: IC50 (µM)
API: value field is a number in µM; no unit string.

Please indicate IC50 recorded for Ac-RAEVHLRKS-NH2 [Ac-9mer (Ac-10mer without Ala1)]
29
